Entry source: patent US20180291110A1

tgt: T1, human transferrin receptor (recombinant, for surface plasmon resonance) (human, UniProt P02786 89-760)
T1 construct: also called huTfR; human transferrin receptor-biotinylated
assay.explanation: SPR 25C
koff: recorded values
experimental.endpoint: koff (s⁻¹)

{"columns": ["binder", "value.observed"],
 "data": [
  ["2/99 VH11/VL12 (antibody, V domains shown) VH: QQLLESGGGLVQPGGSLRLSCAASGFSLSSYAMSWVRQAPGKGLEWVGYIWSGGSTDYADSVKGRFTISRDNSKNTLYLQMNSLRAEDTAVYYCARRYGTSYPDYGDANGFDPWGQGTLVTVSS VL: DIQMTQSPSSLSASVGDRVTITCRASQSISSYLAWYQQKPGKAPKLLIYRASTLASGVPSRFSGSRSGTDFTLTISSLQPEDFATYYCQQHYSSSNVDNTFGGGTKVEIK", 0.00787],
  ["2/99 VH20/VL6 (antibody, V domains shown) VH: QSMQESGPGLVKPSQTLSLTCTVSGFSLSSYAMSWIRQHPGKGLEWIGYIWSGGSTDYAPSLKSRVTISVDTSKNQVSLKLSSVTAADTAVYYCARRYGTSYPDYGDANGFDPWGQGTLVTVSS VL: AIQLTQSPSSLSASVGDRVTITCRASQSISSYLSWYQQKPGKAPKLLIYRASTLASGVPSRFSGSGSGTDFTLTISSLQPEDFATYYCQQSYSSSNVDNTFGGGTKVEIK", 0.00606],
  ["2/99 VH15/VL12 (antibody, V domains shown) VH: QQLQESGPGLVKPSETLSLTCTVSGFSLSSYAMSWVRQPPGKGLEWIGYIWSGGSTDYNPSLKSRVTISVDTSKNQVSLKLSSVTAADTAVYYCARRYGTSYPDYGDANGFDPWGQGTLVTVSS VL: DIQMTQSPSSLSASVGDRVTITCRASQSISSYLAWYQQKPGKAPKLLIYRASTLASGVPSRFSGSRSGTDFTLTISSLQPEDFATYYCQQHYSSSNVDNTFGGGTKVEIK", 0.00764]
]}
